// UniProt:P11712 AC50 records
Sequence (P11712 whole entry): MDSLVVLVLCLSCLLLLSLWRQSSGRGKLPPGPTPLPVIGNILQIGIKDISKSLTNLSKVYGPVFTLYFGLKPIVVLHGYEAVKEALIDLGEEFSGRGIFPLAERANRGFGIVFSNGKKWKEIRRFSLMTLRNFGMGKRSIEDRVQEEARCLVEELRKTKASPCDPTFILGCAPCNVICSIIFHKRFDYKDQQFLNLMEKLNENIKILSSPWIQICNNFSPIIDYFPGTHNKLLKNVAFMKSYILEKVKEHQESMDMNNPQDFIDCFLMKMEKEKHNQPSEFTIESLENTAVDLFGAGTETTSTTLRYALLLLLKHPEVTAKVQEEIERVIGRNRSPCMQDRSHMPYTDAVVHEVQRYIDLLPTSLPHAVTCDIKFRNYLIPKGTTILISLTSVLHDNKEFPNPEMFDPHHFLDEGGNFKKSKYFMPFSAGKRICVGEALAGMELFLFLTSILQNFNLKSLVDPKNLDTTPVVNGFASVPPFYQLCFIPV
value_type: AC50

- compound: "COc1ccc2[nH]cc(CCNc3ncncc3-c3c(C)noc3C)c2c1"
  test_system: "UniProt:P11712"
  result: "1.26 µM (inconclusive)"
- compound: "Oc1c(CN2CCOCC2)ccc(CN2CCOCC2)c1O"
  test_system: "UniProt:P11712"
  result: "7.94 µM (inconclusive)"
- compound: "COc1cccc(NC(=O)Cc2c(C(=O)O)[nH]c3ccccc23)c1"
  test_system: "UniProt:P11712"
  result: "22.4 µM (inconclusive)"
- compound: "O=C1c2ccccc2C(=O)N1CC1CCCO1 (stereo unspecified)"
  test_system: "UniProt:P11712"
  result: "0.398 µM (inconclusive)"
- compound: "O=c1cnc2cnc(Nc3ccccc3)nc2n1C1CC1"
  test_system: "UniProt:P11712"
  result: "31.6 µM (inconclusive)"
- compound: "c1ccc2sc(N3CCN(Cc4ccc5c(c4)OCO5)CC3)nc2c1"
  test_system: "UniProt:P11712"
  result: "7.94 µM (inconclusive)"
- compound: "c1csc(CNc2ncncc2-c2ccoc2)c1"
  test_system: "UniProt:P11712"
  result: "0.794 µM (inconclusive)"
- compound: "CCOc1ccc(-c2c(=O)n(OCc3ccccn3)c3ccccc3[n+]2[O-])cc1"
  test_system: "UniProt:P11712"
  result: "5.62 µM (inconclusive)"
- compound: "CCOC(=O)c1c(C)n(C)c2ccc(OC)c(NS(=O)(=O)c3ccc(Cl)s3)c12"
  test_system: "UniProt:P11712"
  result: "3.16 µM (inconclusive)"
- compound: "COc1ccc(-n2c(=O)c(CCc3ccccc3)nc3cnc(OC)nc32)cc1"
  test_system: "UniProt:P11712"
  result: "7.94 µM (inconclusive)"
- compound: "COC(=O)[C@@H](NC(=O)Nc1ccc(C(C)=O)cc1)C(C)C"
  test_system: "UniProt:P11712"
  result: "3.55 µM (inconclusive)"
